target: His-JNK1 (ref 14-327, Upstate) (UniProt P45983 1-384); assay: JNK inhibition assay
Sequence (P45983 other isoform, or with tags, fused parts or gaps): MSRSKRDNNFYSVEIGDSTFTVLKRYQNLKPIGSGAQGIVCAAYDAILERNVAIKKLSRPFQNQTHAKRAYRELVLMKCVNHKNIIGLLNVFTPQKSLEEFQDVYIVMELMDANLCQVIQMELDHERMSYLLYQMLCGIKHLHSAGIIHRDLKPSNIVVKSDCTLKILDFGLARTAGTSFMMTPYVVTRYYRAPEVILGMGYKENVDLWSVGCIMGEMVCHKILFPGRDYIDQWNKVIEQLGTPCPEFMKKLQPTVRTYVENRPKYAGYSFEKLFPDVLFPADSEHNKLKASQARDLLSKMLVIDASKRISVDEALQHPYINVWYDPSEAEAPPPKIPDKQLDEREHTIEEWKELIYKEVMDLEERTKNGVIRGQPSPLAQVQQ
Square brackets hold non-standard residues; d marks the D form. Ends that are not written are not given here.
MEASURED PARAMETER: IC50 (nM)
Return type: number; implicit unit nM.

-- ask Name the reported IC50 value associated with the binder RPKRPTTL[dR]LF [SEQ ID NO: 6]
-- reply 90.5
